src = paper PMC9363158

- Test system: CYP3A4
- ASSAY REMARKS: in vitro
- ASSAY CONDITIONS: human, fold induction of CYP3A4 expression
MEASURED PARAMETER: fold induction
Give a plain numeric answer without units written out.

Query block: Report its fold induction with CYP3A4 as the test system: C[C@@H]1CCO[C@H]2Cn3cc(C(=O)NCc4ccc(F)cc4F)c(=O)c(O)c3C(=O)N12
Result block: 2.3

---

- Test system: CYP2B6
- ASSAY REMARKS: CYP gene expression in human hepatocytes
- Assay type: in vitro ADME
- ASSAY CONDITIONS: human, cryopreserved primary human hepatocytes
MEASURED PARAMETER: fold induction at 72 h, 1 mM
Give your answer as a number; write no unit.

Query block: Enter fold induction at 72 h, 1 mM (test system CYP2B6) for CCC1(c2ccccc2)C(=O)NC(=O)NC1=O [phenobarbital]
Result block: 2.6
